Test: melting temperature; fluorescence melt of hairpins on a sequencing array, two-state fit, raised by 9.35 °C to match UV melts
Details: sodium 0.088 M
Labelling field: enter yes if recorded Tm is less than 40 °C. Enter no if it equals or exceeds that cut-off.

[[record]]
sequence_input = "GAGTAGGGAAACTTACTC (((((.(....).)))))"
cat = "yes"

[[record]]
sequence_input = "GTAGACCGAAAGGTTAC (((.(((....))))))"
cat = "yes"

[[record]]
sequence_input = "GTACACGAAAGTGCTTAC ((((((....)))..)))"
cat = "yes"

[[record]]
sequence_input = "GCAGATACGAAAGTATGC (((..(((....))))))"
cat = "yes"

[[record]]
sequence_input = "GATCTTCTTAAAGATC ((((((....))))))"
cat = "no"

[[record]]
sequence_input = "GATCTCAATTGAGATC ((((((....))))))"
cat = "no"

[[record]]
sequence_input = "GCACCCGAAAGGGCCTGC ((((((....)))..)))"
cat = "yes"


====

Experiment: melting temperature; fluorescence melt of hairpins on a sequencing array, two-state fit, raised by 9.35 °C to match UV melts
Conditions: sodium 0.088 M
Assign met to entries whose Tm meets or exceeds 50 °C; assign not met to the rest.

[[record]]
sequence_input = "GCACCGCGAAAGCGTCGC ((..(((....)))..))"
cat = "not met"

[[record]]
sequence_input = "GTGGTAGGAAACTGCCAC ((((.((....)).))))"
cat = "met"

[[record]]
sequence_input = "GATCGCACTCGCGATC ((((((....))))))"
cat = "met"

[[record]]
sequence_input = "GAGTACGAAAGTACACTC ((((((....)))..)))"
cat = "not met"

[[record]]
sequence_input = "GGGGATGGAAACGTCCTC (.(((.(....).))).)"
cat = "not met"

[[record]]
sequence_input = "GAGTTTGGAAACAAATTC ((.((((....)))).))"
cat = "not met"

[[record]]
sequence_input = "GCTTCCGAAAGGAAGAGC ((((((....)))..)))"
cat = "met"

[[record]]
sequence_input = "GGTGAAACGAAAGTTACC (((..(((....))))))"
cat = "not met"

[[record]]
sequence_input = "GATTAACGAAAGTTCATC (((.(((....))).)))"
cat = "not met"

[[record]]
sequence_input = "GCCAGAGGAAACTTTGGC ((((.((....)).))))"
cat = "not met"

[[record]]
sequence_input = "GCGATAGGAAACTATCGC (((((((....)))))))"
cat = "met"

[[record]]
sequence_input = "GGTGTCGAAAGACCCACC ((((((....)))..)))"
cat = "not met"

[[record]]
sequence_input = "GCCCTACGAAAGTACGGC (((.(((....))).)))"
cat = "not met"

[[record]]
sequence_input = "GTACGCGAAAGCGATAC ((((((....))).)))"
cat = "not met"

[[record]]
sequence_input = "GGGGTGGGAAACCGTCCC (((..((....))..)))"
cat = "not met"

[[record]]
sequence_input = "GATAATGGAAACATTATC (((((((....)))))))"
cat = "not met"

[[record]]
sequence_input = "CGTCCGGAAACGGGAACG ((((((....)))..)))"
cat = "not met"

